Experiment: Cytotoxicity against human Caco2 cells assessed as cell viability at 2 uM after 5 hrs by MTT assay relative to control
Type: cell-based
Conditions: Caco-2 cells, read-out: Activity
RECORDED_ENDPOINT: viability at 5 h, 2 µM (%)
Note: unit % is implicit; provide only the numeric part.

Quick note, viability at 5 h, 2 µM for `C=C/C(C)=C\C[C@]1(C)[C@H](C)C[C@H](O)[C@@]23C(=C[C@H](OC(=O)CCC)C[C@@H]12)[C@@H](OC(=O)CCC)O[C@H]3OC(C)=O` landed at 97.9

---

Test: Permeability from apical to basolateral side in human Caco2 cells assessed as drug recovery at 2 uM after 120 mins in absence of CES inhibitor BNPP by LC-MS method
Type: ADME, cell-based
Conditions: Caco-2, read-out: Drug recovery
RECORDED_ENDPOINT: recovery at 2 h, 2 µM
# number then unit; no other words

Quick note, recovery at 2 h, 2 µM for `C=C/C(C)=C\C[C@]1(C)[C@H](C)C[C@H](O)[C@@]23C(=C[C@H](OC(=O)CCC)C[C@@H]12)[C@@H](OC(=O)CCC)O[C@H]3OC(C)=O` landed at 12%

---

Assay: Permeability from apical to basolateral side in human Caco2 cells assessed as drug recovery at 2 uM after 60 mins in presence of CES inhibitor BNPP by LC-MS method
Format: ADME, cell-based
Details: Caco-2, with BNPP (CES inhibitor), concentration not stated, read-out: Drug recovery
RECORDED_ENDPOINT: recovery at 1 h, 2 µM

Quick note, recovery at 1 h, 2 µM for `C=C/C(C)=C\C[C@]1(C)[C@H](C)C[C@H](O)[C@@]23C(=C[C@H](OC(=O)CCC)C[C@@H]12)[C@@H](OC(=O)CCC)O[C@H]3OC(C)=O` landed at 87.2%

---

Assay: Permeability from apical to basolateral side in human Caco2 cells assessed as drug recovery at 2 uM after 10 mins in presence of CES inhibitor BNPP by LC-MS method
Format: ADME, cell-based
Details: Caco-2, with BNPP (CES inhibitor), concentration not stated, read-out: Drug recovery
RECORDED_ENDPOINT: recovery at 10 min, 2 µM (%)
Note: unit % is implicit; provide only the numeric part.

Quick note, recovery at 10 min, 2 µM for `C=C/C(C)=C\C[C@]1(C)[C@H](C)C[C@H](O)[C@@]23C(=C[C@H](OC(=O)CCC)C[C@@H]12)[C@@H](OC(=O)CCC)O[C@H]3OC(C)=O` landed at 85.4

---

Target: CE2 (cocaine esterase) (Homo sapiens, UniProt O00748)
Sequence (O00748 whole entry): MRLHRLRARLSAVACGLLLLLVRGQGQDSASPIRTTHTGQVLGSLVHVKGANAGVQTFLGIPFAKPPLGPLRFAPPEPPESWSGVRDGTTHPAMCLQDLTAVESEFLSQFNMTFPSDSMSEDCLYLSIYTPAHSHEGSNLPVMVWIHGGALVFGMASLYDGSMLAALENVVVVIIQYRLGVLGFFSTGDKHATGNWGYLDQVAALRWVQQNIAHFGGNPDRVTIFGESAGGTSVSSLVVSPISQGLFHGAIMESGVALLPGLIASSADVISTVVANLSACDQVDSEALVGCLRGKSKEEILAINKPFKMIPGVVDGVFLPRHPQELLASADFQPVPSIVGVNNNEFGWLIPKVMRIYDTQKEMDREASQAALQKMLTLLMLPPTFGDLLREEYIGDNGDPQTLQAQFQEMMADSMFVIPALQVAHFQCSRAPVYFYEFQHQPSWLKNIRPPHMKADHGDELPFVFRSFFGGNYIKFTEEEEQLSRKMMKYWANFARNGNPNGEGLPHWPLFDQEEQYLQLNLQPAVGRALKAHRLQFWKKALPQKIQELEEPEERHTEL
Experiment: Drug metabolism assessed as human CE2-mediated compound hydrolysis at 1 uM incubated for 30 mins measured every 5 mins by LC-MS analysis
Format: ADME
Conditions: human CE2 enzyme, read-out: Drug metabolism
RECORDED_ENDPOINT: metabolised at 0.5 h, 1 µM (%)
Note: unit % is implicit; provide only the numeric part.

Quick note, metabolised at 0.5 h, 1 µM for `C=C/C(C)=C\C[C@]1(C)[C@H](C)C[C@H](O)[C@@]23C(=C[C@H](OC(=O)CCC)C[C@@H]12)[C@@H](OC(=O)CCC)O[C@H]3OC(C)=O` landed at 30

---

Experiment: Permeability from basolateral to apical side in human Caco2 cells assessed as drug recovery at 2 uM after 60 mins in presence of CES inhibitor BNPP by LC-MS method
Format: ADME, cell-based
Settings: Caco-2, with BNPP (CES inhibitor), concentration not stated, read-out: Drug recovery
RECORDED_ENDPOINT: recovery at 1 h, 2 µM (%)
Note: unit % is implicit; provide only the numeric part.

Quick note, recovery at 1 h, 2 µM for `C=C/C(C)=C\C[C@]1(C)[C@H](C)C[C@H](O)[C@@]23C(=C[C@H](OC(=O)CCC)C[C@@H]12)[C@@H](OC(=O)CCC)O[C@H]3OC(C)=O` landed at 89.3

---

Test: Cytotoxicity against human Caco2 cells assessed as cell viability at 1 uM after 5 hrs by MTT assay relative to control
Format: cell-based
Conditions: Caco-2 cells, read-out: Activity
RECORDED_ENDPOINT: viability at 5 h, 1 µM
# number then unit; no other words

Quick note, viability at 5 h, 1 µM for `C=C/C(C)=C\C[C@]1(C)[C@H](C)C[C@H](O)[C@@]23C(=C[C@H](OC(=O)CCC)C[C@@H]12)[C@@H](OC(=O)CCC)O[C@H]3OC(C)=O` landed at 98.9%

---

Molecular target: CE2 (cocaine esterase) (Homo sapiens)
Test: Drug metabolism assessed as human CE2-mediated compound hydrolysis by measuring compound half life at 1 uM incubated for 30 mins by LC-MS analysis
Format: ADME
Details: human CE2 enzyme
RECORDED_ENDPOINT: half-life at 1 µM (min)
Note: unit min is implicit; provide only the numeric part.

half-life at 1 µM for CE2 (cocaine esterase) (Homo sapiens) with input `C=C/C(C)=C\C[C@]1(C)[C@H](C)C[C@H](O)[C@@]23C(=C[C@H](OC(=O)CCC)C[C@@H]12)[C@@H](OC(=O)CCC)O[C@H]3OC(C)=O` equals 49.5

---

Test: Permeability from apical to basolateral side in human Caco2 cells assessed as drug recovery at 2 uM after 120 mins in presence of CES inhibitor BNPP by LC-MS method
Assay type: ADME, cell-based
Details: Caco-2, with BNPP (CES inhibitor), concentration not stated, read-out: Drug recovery
RECORDED_ENDPOINT: recovery at 2 h, 2 µM
# number then unit; no other words

Quick note, recovery at 2 h, 2 µM for `C=C/C(C)=C\C[C@]1(C)[C@H](C)C[C@H](O)[C@@]23C(=C[C@H](OC(=O)CCC)C[C@@H]12)[C@@H](OC(=O)CCC)O[C@H]3OC(C)=O` landed at 87.4%

---

Test: Permeability from basolateral to apical side in human Caco2 cells assessed as drug recovery at 2 uM after 120 mins in absence of CES inhibitor BNPP by LC-MS method
Format: ADME, cell-based
Details: Caco-2, read-out: Drug recovery
RECORDED_ENDPOINT: recovery at 2 h, 2 µM (%)
Note: unit % is implicit; provide only the numeric part.

Quick note, recovery at 2 h, 2 µM for `C=C/C(C)=C\C[C@]1(C)[C@H](C)C[C@H](O)[C@@]23C(=C[C@H](OC(=O)CCC)C[C@@H]12)[C@@H](OC(=O)CCC)O[C@H]3OC(C)=O` landed at 27.6

---

Experiment: Permeability from basolateral to apical side in human Caco2 cells assessed as drug recovery at 2 uM after 120 mins in presence of CES inhibitor BNPP by LC-MS method
Type: ADME, cell-based
Conditions: Caco-2, with BNPP (CES inhibitor), concentration not stated, read-out: Drug recovery
RECORDED_ENDPOINT: recovery at 2 h, 2 µM

Quick note, recovery at 2 h, 2 µM for `C=C/C(C)=C\C[C@]1(C)[C@H](C)C[C@H](O)[C@@]23C(=C[C@H](OC(=O)CCC)C[C@@H]12)[C@@H](OC(=O)CCC)O[C@H]3OC(C)=O` landed at 92.9%

---

Experiment: Permeability from basolateral to apical side in human Caco2 cells assessed as drug recovery at 2 uM after 10 mins in absence of CES inhibitor BNPP by LC-MS method
Type: ADME, cell-based
Details: Caco-2, read-out: Drug recovery
RECORDED_ENDPOINT: recovery at 10 min, 2 µM (%)
Note: unit % is implicit; provide only the numeric part.

Quick note, recovery at 10 min, 2 µM for `C=C/C(C)=C\C[C@]1(C)[C@H](C)C[C@H](O)[C@@]23C(=C[C@H](OC(=O)CCC)C[C@@H]12)[C@@H](OC(=O)CCC)O[C@H]3OC(C)=O` landed at 74.4
